Where these numbers come from: ChEMBL document CHEMBL4823328

Species on record: Homo sapiens
Experiment Notes: Selectivity for human galectin-8N over human galectin-2
Parameter Measured: Selectivity ratio

- Smiles Data: "O=C(O)c1ccc2nc(CO[C@@H]3C=CO[C@H](CO)[C@@H]3O)[nH]c2c1"
  Parameter Measured: "Selectivity ratio"
  Observed Result: "> 2"
- Smiles Data: "COC(=O)c1ccc2ccc(CO[C@@H]3C=CO[C@H](CO)[C@@H]3O)nc2c1"
  Parameter Measured: "Selectivity ratio"
  Observed Result: "> 2"
- Smiles Data: "Cn1c(CO[C@@H]2C=CO[C@H](CO)[C@@H]2O)nc2ccc(C(=O)O)cc21"
  Parameter Measured: "Selectivity ratio"
  Observed Result: "> 2"

As a next step, examine the compound that follows.
State its Selectivity ratio: O=C(O)c1ccc2ccc(CO[C@@H]3C=CO[C@H](CO)[C@@H]3O)nc2c1
> 2

----------
Target Or System: UniProt P56470
Sequence (P56470 whole entry): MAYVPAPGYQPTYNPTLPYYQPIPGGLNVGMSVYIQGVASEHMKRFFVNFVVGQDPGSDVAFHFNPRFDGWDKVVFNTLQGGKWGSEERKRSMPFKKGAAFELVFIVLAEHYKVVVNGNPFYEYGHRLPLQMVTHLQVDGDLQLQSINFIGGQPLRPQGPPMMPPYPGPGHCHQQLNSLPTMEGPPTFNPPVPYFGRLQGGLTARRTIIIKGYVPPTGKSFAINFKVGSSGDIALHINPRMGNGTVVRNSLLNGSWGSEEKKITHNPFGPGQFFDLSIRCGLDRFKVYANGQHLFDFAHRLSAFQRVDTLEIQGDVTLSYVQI
Experiment Notes: Binding affinity to human galectin-4 C terminal domain assessed as dissociation constant by competitive fluorescence polarization assay
Protocol Conditions: read-out: Kd
Parameter Measured: Kd

Check the records and state Kd for OC[C@H]1Oc2cc(Cc3ccc(F)cc3)cc3c2[C@@H](OC3)[C@H]1O
> 3 mM

----------
Organism: Homo sapiens
Experiment Notes: Selectivity for human galectin-8N over human galectin-9 C terminal domain
Parameter Measured: Selectivity ratio

Illustrative cases are given below, each with its answer.
- Smiles Data: "COC(=O)c1ccc2nc(CO[C@@H]3C=CO[C@H](CO)[C@@H]3O)[nH]c2c1"
  Observed Result: "> 2"
- Smiles Data: "COC(=O)c1ccc2ccc(CO[C@@H]3C=CO[C@H](CO)[C@@H]3O)nc2c1"
  Observed Result: "> 2"

As a next step, examine the compound that follows.
Give reported Selectivity ratio value for Cn1c(CO[C@@H]2C=CO[C@H](CO)[C@@H]2O)nc2ccc(C(=O)O)cc21
> 2

----------
Species on record: Homo sapiens
Experiment Notes: Selectivity for human galectin-8N over human galectin-3
Reported Selectivity ratio values follow for various compounds

- Smiles Data: "O=C(O)c1ccc2ccc(CO[C@@H]3C=CO[C@H](CO)[C@@H]3O)nc2c1"
  Selectivity ratio: "> 2"

Indicate its recorded Selectivity ratio; the compound in question is Cn1c(CO[C@@H]2C=CO[C@H](CO)[C@@H]2O)nc2cc(C(=O)O)ccc21
0.95

Output Selectivity ratio of OC[C@H]1Oc2cc(Cc3ccc(F)cc3)cc3c2[C@@H](OC3)[C@H]1O
> 2

State its Selectivity ratio for this compound: OC[C@H]1OC=C[C@@H](O)[C@H]1O
> 2

Return reported Selectivity ratio. Input compound: COC(=O)c1ccc2nc(CO[C@@H]3C=CO[C@H](CO)[C@@H]3O)n(C)c2c1
> 2

Supply reported Selectivity ratio belonging to this compound: COC(=O)c1ccc2nc(CO[C@@H]3C=CO[C@H](CO)[C@@H]3O)[nH]c2c1
> 2

Identify measured Selectivity ratio corresponding to CCOC(=O)c1ccc2c(c1)nc(CO[C@@H]1C=CO[C@H](CO)[C@@H]1O)n2C
0.99

Give Selectivity ratio for COC(=O)c1ccc2ccc(CO[C@@H]3C=CO[C@H](CO)[C@@H]3O)nc2c1
> 2

Specify measured Selectivity ratio for O=C(O)c1ccc2nc(CO[C@@H]3C=CO[C@H](CO)[C@@H]3O)[nH]c2c1 .
> 2

----------
Species on record: Homo sapiens
Experiment Notes: Selectivity for human galectin-8N over human galectin-1
Selectivity ratio listing for selected molecules.

- Smiles Data: "COC(=O)c1ccc2nc(CO[C@@H]3C=CO[C@H](CO)[C@@H]3O)[nH]c2c1"
  Selectivity ratio: "> 2"
- Smiles Data: "OC[C@H]1Oc2cc(Cc3ccc(F)cc3)cc3c2[C@@H](OC3)[C@H]1O"
  Selectivity ratio: "> 2"
- Smiles Data: "Cn1c(CO[C@@H]2C=CO[C@H](CO)[C@@H]2O)nc2cc(C(=O)O)ccc21"
  Selectivity ratio: 1.4

State, in one line, measured Selectivity ratio of COC(=O)c1ccc2ccc(CO[C@@H]3C=CO[C@H](CO)[C@@H]3O)nc2c1
> 2

Please supply the value of reported Selectivity ratio for the item CCOC(=O)c1ccc2c(c1)nc(CO[C@@H]1C=CO[C@H](CO)[C@@H]1O)n2C
1.2

Report Selectivity ratio, nothing else, for this molecule: O=C(O)c1ccc2ccc(CO[C@@H]3C=CO[C@H](CO)[C@@H]3O)nc2c1
> 2

# return recorded Selectivity ratio for input O=C(O)c1ccc2nc(CO[C@@H]3C=CO[C@H](CO)[C@@H]3O)[nH]c2c1
> 2

Specify Selectivity ratio for COC(=O)c1ccc2nc(CO[C@@H]3C=CO[C@H](CO)[C@@H]3O)n(C)c2c1 and stop.
> 2

Fill in Selectivity ratio for record OC[C@H]1OC=C[C@@H](O)[C@H]1O
1.2
